Tested on: MERTK;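 note: KINOMEscan kinase panel screen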
conditions: concentration: 1 μM, replicates: in singlicate; n = 1
measuredEndpoint: %Inh
In your response, put the unit directly after the numeric value.

Previously resolved entries follow.
> print(dat)
                                   molecule  observedvalue
1  NCCCC(NC(=O)c1cc(Br)c(-c2ccnc3[nH]ccc23)s1)c1ccccc1.O=C(O)C(F)(F)F.O=C(O)C(F)(F)F (stereo not drawn)            55%
2  CSc1cccc2c(-c3ccncn3)c(-c3ccc(F)cc3)nn12            39%
3  CCc1ccc(-c2ccc3c(c2)-c2c(cnn2C)S(=O)(=O)N3C)cc1             0%

Query: Form field: reported %Inh of "Nc1ncc(-c2ccc3nccc(-c4ccncc4)c3c2)cc1S(=O)(=O)N1CCOCC1"
Result: 12%

Query: Now this one: "C[C@@H]1CC[C@@H](C(=O)Nc2ccccc2)CN1c1cc(-c2ccc3c(N)n[nH]c3c2)nc(N)n1"
Result: 39%

Query: Now this one: "O=C(O)C(F)(F)F.O=C(O)C(F)(F)F.O=c1[nH]ccc2nc(N[C@@H]3CCCNC3)nc(Nc3ccc(S(=O)(=O)N4CCOCC4)cc3)c12"
Result: 100%

Query: Now this one: "COc1cccc(C2=C(Nc3ccc(Cl)c(C(=O)O)c3)C(=O)NC2=O)c1"
Result: 0%

Query: Now this one: "CN1CCN(Cc2cccc(-c3ccc4c(Nc5ccc(Oc6ccccc6)cc5)ccnc4c3)c2)CC1"
Result: 0%

Query: Now this one: "COc1cccc(-c2ccc3c(NC(=O)C4CC4)n[nH]c3n2)c1"
Result: 38%

Query: Now this one: "O=c1[nH]cc(-c2ccc(N3CCOCC3)cc2)c2sc(-c3cn[nH]c3)cc12"
Result: 7%

Query: Now this one: COc1ccc(Nc2nccc(N3CCC(NC(=O)Nc4cccc(OC)c4)C3)n2)cc1 (stereo not drawn)
Result: 19%

Query: Now this one: COc1cc(Nc2nccc(N3CCC(NC(=O)Nc4cccc(C(C)=O)c4)C3)n2)cc(OC)c1OC (stereo not drawn)
Result: 23%
